Origin of values: the DeepSol protein solubility set

- measurement-notes: soluble on expression in E. coli; label from the status in PepcDB or PDB records
test-readout: soluble on expression in E. coli

{"sequence-content": "MGSDKIHHHHHHMKGMDIMNSAMILEISWFQEHGIMRRAVNRGLARKSSHPSRIGIDEKYYGKHHRYITLVFNHDDHSVEFISLDRKQESLDLYYRSIGEEASGSIEAAPMDMWDPFIVSTKSNVTDAESKIVFDRFHVMKHMNMALDDVRWMESRMAEYKEMFRKTRCLWLYSPENLPDKYGERYEILKESDLKTARVYAIKENLRNLWNCSGEDEARSF", "reported-value": "not soluble"}
{"sequence-content": "RAKLMEERETSLKDSVEVAFDAVRLIANNPNLSEAEAKQQVKAVLTNIRYGSDGYFFAYDAQGTNLVHPIQPELVGQNLWQLQDERGDFLIQ", "reported-value": "not soluble"}
{"sequence-content": "MNYAIQSETRHYPYLEVSARKRALKHSLIRVEQGLLLFRLGKHEYAVEKGQTLWIPFDCLCGLTFFPDTHITRVDFSLRLNVRLPHNAGFIKSSELALAVLHRLQNCERHHPTFTHLTQLLMLELTTCDPKLKMSPLTQAITEWQPQAHASVSKEQHVVLLVREALKRSQSGAQTHSIIEELFSGNAEHYHQLCTLVLGRTL", "reported-value": "not soluble"}
{"sequence-content": "MGSDKIHHHHHHMKVKSVSEILIYPPDRIVGDLWIVRNWVTKRNYKVSSPTLAILLYCKIPHTVGDILDFFYEKYGIKNELIHLGLKKLMATDLLLEVKQEMDGSNEVFGLEFDNWYKHNWYMALLYHLVSYDYPFIEDYVAKQRMINYSSQEIDSNRYKEYNSQVSYDIPKATEVKIRETNTSKQKCVNFADLLTMASLGYTRVGSLRVYWNGDPLILRTSPSGGSRHPTETYIVAINVEGLESGWYHISVKDSKLEQIKIGGTDPDDLRLLFPTTYVRPDFHVDLILIFTSIFERNMYRYREPRTFRTIHMDVGHLAATTEIICEKLGYKYLVQYSANDEGIEKFLGLSPLKEGYMASMAIGN", "reported-value": "not soluble"}
{"sequence-content": "MDITEKLRLITRNAEEVVTEEELRQLIETKEKPRAYVGYEPSGEIHLGHMMTVQKLMDLQEAGFEIIVLLADIHAYLNEKGTFEEIAEVADYNKKVFIALGLDESRAKFVLGSEYQLSRDYVLDVLKMARITTLNRARRSMDEVSRRKEDPMVSQMIYPLMQALDIAHLGVDLAVGGIDQRKIHMLARENLPRLGYSSPVCLHTPILVGLDGQKMSSSKGNYISVRDPPEEVERKIRKAYCPAGVVEENPILDIAKYHILPRFGKIVVERDAKFGGDVEYASFEELAEDFKSGQLHPLDLKIAVAKYLNMLLEDARKRLGVSV", "reported-value": "soluble"}
{"sequence-content": "MGSDKIHHHHHHMQKDKIKTDWSHGENPEDYKCCVAFHGHDCPGLAVGYRAAQAALAALCGERAEDEELVAIVETDACGVDALQVLTGCTFGKGNLIYQDHGKHVFTLIERKSGRGVRVALKAGVMEMNERHLTLMEKVHQMTATPHETAEFWKIHSQKALEILQKPIETLFNIQPINRTLPPKARREPSRLCARCGEPAMGSKLVVLDGREVCRDCLQPEER", "reported-value": "not soluble"}
{"sequence-content": "MGRIRQTFIKRTGEELIEKFADKFTSDFEENKKAVEEVAMISTKPLRNRIAGYVTAKVKKMNALEHHHHHH", "reported-value": "not soluble"}
{"sequence-content": "MGSDKIHHHHHHMTTLGIDHPLVCVRDLAAKRATYQSLGFLMKPPGMHPWGTSTALVIFRNQLLELVSIEDESLLDGYAAGSFRFGRHVEAWLAEREGVCLSALNSMDAEADEAAVLARGGSCAGTVEFGRDVVRDDGTPDRTKTTLKIFPHAGLPRLSMFACQQHRRDLIEFPDWMDHPNGAHGFASATILAAPSDQGRVRDWLSVLHGADAVRDTDWGFEVATTNGRWRVVSRATAPALLGKLPDGLASDGAPSVISLDIRCHALSQLRPFVEAGEFVCQDVNGALVLTEVARLGGILLSFHEIPKV", "reported-value": "not soluble"}
{"sequence-content": "MWRVGVYSSLRGYKRLNFCCEMLIAAYPKVGECAREGLMDKEVCINAAKGRFLGLRLPELFGGSDMRLNRSCRRRNMKLAAWCMLIQCDSRGGNHAAEVREIGDITKIAICQQCDFECAGPSANFKVTRLQGLRTLKAANRSESLNVEGCYALQSLLM", "reported-value": "not soluble"}
{"sequence-content": "MYDWFKQMRKESPVYYDGKVWNLFKYEDCKMVLNDHKRFSSNLTGYNDKLEMLRSGKVFFDIPTRYTMLTSDPPLHDELRNLTADAFNPSNLPVDFVREVTVKLLSELDEEFDVIESFAIPLPILVISKMLGINPDVKKVKDWSDLVALRLGRADEIFSIGRKYLELISFSKKELDSRKGKEIVDLTGKIANSNLSELEKEGYFILLMIAGNETTTNLIGNAIEDFTLYNSWDYVREKGALKAVEEALRFSPPVMRTIRVTKEKVKIRDQVIDEGELVRVWIASANRDEEVFKDPDSFIPDRTPNPHLSFGSGIHLCLGAPLARLEARIALEEFAKKFRVKEIVKKEKIDNEVLNGYRKLVVRVERT", "reported-value": "soluble"}
{"sequence-content": "MSEYLAAADYLPHSAPMVLVDEVIHVDDEHAHCRVAVSREGILAPFLNAQGHLPAWFGIEIIAQTIGVWSGWHGRQSLGLQEKPRPGMLLGGRGYHCQQAIFPAGSLLDVTVMLVMRDEKIGSFEGEIAIDGEKYASGRLNTYQPDDRELNILLEQGKPL", "reported-value": "not soluble"}
{"sequence-content": "MIKYSIRGENLEVTEAIRDYVVSKLEKIEKYFQPEQELDARINLKVYREKTAKVEVTIPLGSITLRAEDVSQDMYGSIDLVTDKIERQIRKNKTKIERKNKNKVATGQLFTDALVEDSNIVQSKVVRSKQIDLKPMDLEEAILQMDLLGHDFFIYVDVEDQTTNVIYRREDGEIGLLEVKESAAALEHHHHHH", "reported-value": "soluble"}
{"sequence-content": "GPGSMAGWASLGRSFRTPESRSEELVKKAIEGDALRIGSGDTVKHEEAVSPFAAKLFSNITGSQRYVLIAVRHTQPATVDESRKAAIFHHDIRQAGIAMGHDEILAVGHARLEPGEQFGWREPLMLFVQIILIDKTGFHPSTCSLDAMFRLVVEWAGSRIKRMQPPHCISHDGYFLGRSKVR", "reported-value": "not soluble"}
